molecular target: hMC1-R (human) (UniProt Q01726); test: cell-based or functional assay
Sequence (Q01726 whole entry): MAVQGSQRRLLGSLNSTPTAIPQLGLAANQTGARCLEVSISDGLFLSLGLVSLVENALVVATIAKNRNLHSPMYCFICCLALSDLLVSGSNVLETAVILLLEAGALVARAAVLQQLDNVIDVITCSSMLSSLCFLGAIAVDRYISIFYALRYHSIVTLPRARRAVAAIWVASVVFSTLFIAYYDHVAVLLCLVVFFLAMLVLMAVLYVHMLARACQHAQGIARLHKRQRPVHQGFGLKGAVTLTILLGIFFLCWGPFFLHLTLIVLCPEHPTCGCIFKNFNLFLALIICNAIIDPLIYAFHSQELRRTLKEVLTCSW
Bridge positions count the residues as written; N and C are the ends. Square brackets hold non-standard residues; d marks the D form. d2Nal = N[C@H](Cc1ccc2ccccc2c1)C(=O)O
experimental readout: cAMP EC50
One number for each entry.

INSERT INTO measurements (binder, readout_value) VALUES
  ('CEHXRXACPPKDXYGRKKRRQRRR (N-terminal acetyl; X4=D-2-Nal; X6=2-Nal; X13=β-Ala; Cys1-Cys8 disulfide; C-terminal amide)', 29.7);

The record that follows has no cAMP EC50 shown yet.
Give its cAMP EC50 value. Item: Ac-CEH[d2Nal]RWACPPKD-NH2 (disulfide 1-8; SMILES CC(=O)N[C@H]1CSSC[C@@H](C(=O)N2CCC[C@H]2C(=O)N2CCC[C@H]2C(=O)N[C@@H](CCCCN)C(=O)N[C@@H](CC(=O)O)C(N)=O)NC(=O)[C@H](C)NC(=O)[C@H](Cc2c[nH]c3ccccc23)NC(=O)[C@H](CCCNC(=N)N)NC(=O)[C@@H](Cc2ccc3ccccc3c2)NC(=O)[C@H](Cc2c[nH]cn2)NC(=O)[C@H](CCC(=O)O)NC1=O) [Ac-c(Cys-Glu-His-D-2-Nal-Arg-Trp-Ala-Cys)-Pro-Pro-Lys-Asp-NH2]
66.1

Every entry's value here was drawn from patent US20120135923A1.
